FYI, the data here is from patent US10065990B2.

System: MCF-7 (human breast cancer cells)
measurement.notes: MTT cancer cell growth inhibition
Assay type: cell-based
details: Homo sapiens, MCF7, 72 h, 72 hours incubation, read-out: GI50 MCF
measured.endpoint: GI50 (nM)

# annotated cases, reported GI50 shown
>>> print(df.to_string())
                                        smi                        test_target  measured_endpoint  unit_spec  reported_value
0  C/C=C1\NC(=O)c2nc(ccc2F)CNC(=O)C[C@@H](/C=C/CCSC(=O)CC)OC(=O)[C@H](C(C)C)NC1=O  MCF-7 (human breast cancer cells)               GI50         nM              50
1  CC(C)=C1NC(=O)c2nc(ccc2F)CNC(=O)C[C@@H](/C=C/CCS)OC(=O)[C@H](C(C)C)NC1=O  MCF-7 (human breast cancer cells)               GI50         nM              50

A. C/C=C1\NC(=O)c2cccc(n2)CNC(=O)C[C@@H](/C=C/CCS)OC(=O)[C@H](C)NC1=O
B. C/C=C1\NC(=O)c2ccc(F)c(n2)CNC(=O)C[C@@H](/C=C/CCS)OC(=O)[C@H](CCCCNC(=O)OCC2c3ccccc3-c3ccccc32)NC1=O
C. C/C=C1\NC(=O)c2cccc(n2)CNC(=O)C[C@@H](/C=C/CCS)OC(=O)[C@H](Cc2cccc3ccccc23)NC1=O
D. C/C=C1\NC(=O)c2cccc(n2)CNC(=O)C[C@@H](/C=C/CCSC(C)=O)OC(=O)[C@H](CCCCN)NC1=O
Ascending sort, GI50. Arrange the labels as the request states and list them.
B, C, A, D
(B: 30 nM, C: 60 nM, A: 1210 nM, D: 19800 nM)
